// reported pIC50 for each item listed
- System: nucleoside uptake (3H-Thymidine)
- METHOD DESCRIPTION: Nucleoside uptake assay (uptake) using 3H-Thymidine, IC50, cell line as indicated in each table (none given in Table 8)
- Type: cell-based
- EXPERIMENTAL PARAMETERS: 3H-Thymidine uptake; cell line not given
Scale note: pIC50 = -log10(concentration in M).

Look over these answered cases.
Name the recorded pIC50 of the compound listed here: "COc1ccc(CC[C@H]2OC(=O)[C@@H]3CCCCN3C(=O)C(=O)C(C)(C)COC(=O)C=CCCN(C)C(=O)[C@H](CC(C)C)N(C)C(=O)[C@@H]3CCCN3C(=O)[C@@H](Cc3ccccc3)N(C)C(=O)CNC(=O)COc3cccc2c3)cc1OC"
7.54

Name the recorded pIC50 of the compound listed here: "COc1ccc(CC[C@H]2OC(=O)[C@@H]3CCCCN3C(=O)C(=O)C(C)(C)COC(=O)C=CCCN(C)C(=O)[C@H](CC(C)C)N(C)C(=O)[C@@H]3CCCN3C(=O)[C@@H](Cc3ccccc3)N(C)C(=O)[C@H](C)NC(=O)COc3cccc2c3)cc1OC"
7.98

Name the recorded pIC50 of the compound listed here: "CCC[C@@H]1NC(=O)CCC(=O)Nc2cccc(c2)[C@@H](CCc2ccc(OC)c(OC)c2)OC(=O)[C@@H]2CCCCN2C(=O)C(=O)C(C)(C)COC(=O)/C=C/CCN(C)C(=O)[C@H]([C@@H](C)CC)N(C)C(=O)[C@@H]2CCCN2C(=O)[C@@H](Cc2ccccc2)N(C)C1=O"
7.91

Attention now shifts to the item below.
Name the recorded pIC50 of the compound listed here: "COc1ccc(CC[C@H]2OC(=O)[C@@H]3CCCCN3C(=O)C(=O)C(C)(C)COC(=O)/C=C/CCN(C)C(=O)[C@H](C(C)C)N(C)C(=O)[C@@H]3CCCN3C(=O)[C@@H](Cc3ccccc3)N(C)C(=O)CNC(=O)COc3cccc2c3)cc1OC"
7.31
